The following compounds are listed with their measured normalised cell viability values.
system: NCI-H1944; experiment: normalised cell viability (NPI; 0 = phenylarsine oxide control, 1 = DMSO control) (fraction of DMSO control); higher = more viable cells (less compound toxicity); details: glucocorticoid arm: hydrocortisone 2.75 uM co-treatment; compound 5 µM; 6 days
Structures can show the parent of a compound that is named as a salt. The full ranking holds about 1,900 compounds; the median of “normalised cell viability (NPI; 0 = phenylarsine oxide control, 1 = DMSO control)” is about 1, and the lowest 2% start at about 0.039. Many of the other results were omitted from the sample, so the lowest values are more common in it than they were.
Measured Parameter: normalised cell viability

[[record]]
compound = "N[C@@H](Cn1ccc(=O)[nH]c1=O)C(=O)O [S(-)-Willardiine]"
measured_parameter = "normalised cell viability"
observed_result = 1.02

[[record]]
compound = "CC[C@H]1CN2CCc3cc(OC)c(OC)cc3[C@@H]2C[C@@H]1C[C@H]1NCCc2cc(OC)c(OC)cc21 [Emetine dihydrochloride hydrate]"
measured_parameter = "normalised cell viability"
observed_result = 0.0175

[[record]]
compound = "CN[C@@H]1C[C@H]2O[C@@](C)([C@@H]1OC)n1c3ccccc3c3c4c(c5c6ccccc6n2c5c31)C(=O)NC4"
measured_parameter = "normalised cell viability"
observed_result = 0.0186

[[record]]
compound = "CCCN1CCC[C@@H](c2cccc(C#N)c2)C1 [S(-)-DS 121 hydrochloride]"
measured_parameter = "normalised cell viability"
observed_result = 0.972

[[record]]
compound = "CC12CCC3C(CCC4=C(O)C(=O)CCC43C)C1CCC2=O (stereo not drawn)"
measured_parameter = "normalised cell viability"
observed_result = 0.975

[[record]]
compound = "CC1C2Cc3ccc(O)cc3C1(C)CCN2CC1CC1 (single isomer, unassigned; (+)) [(+)-Cyclazocine]"
measured_parameter = "normalised cell viability"
observed_result = 1

[[record]]
compound = "Oc1ncc(N(CCCl)CCCl)c(O)n1"
measured_parameter = "normalised cell viability"
observed_result = 1.06

[[record]]
compound = "Cc1c(N)nc([C@H](CC(N)=O)NC[C@H](N)C(N)=O)nc1C(=O)N[C@H](C(=O)N[C@H](C)[C@@H](O)[C@H](C)C(=O)N[C@H](C(=O)NCCc1nc(-c2nc(C(=O)NCCC[S+](C)C)cs2)cs1)[C@@H](C)O)[C@@H](OC1OC(CO)C(O)C(O)C1OC1OC(CO)C(O)C(OC(N)=O)C1O)c1cnc[nH]1 (stereo partly drawn) [Bleomycin sulfate]"
measured_parameter = "normalised cell viability"
observed_result = 0.196

[[record]]
compound = "C[C@@H]1O[C@H](C[N+](C)(C)C)C[C@H]1O (racemic) [(±)-Muscarine chloride]"
measured_parameter = "normalised cell viability"
observed_result = 1.03

[[record]]
compound = "C[C@@H]1O[C@@H](O[C@H]2C[C@@H](O)[C@]3(CO)[C@H]4[C@H](O)C[C@]5(C)[C@@H]([C@@H]6COC(=O)C6)CC[C@]5(O)[C@@H]4CC[C@]3(O)C2)[C@H](O)[C@H](O)[C@H]1O [Dihydroouabain]"
measured_parameter = "normalised cell viability"
observed_result = 0.0138

[[record]]
compound = "C[C@H](N)CN1CCc2ccc(Br)cc21 [VER-3323 hemifumarate salt]"
measured_parameter = "normalised cell viability"
observed_result = 1.01

[[record]]
compound = "COc1ccc2c3c1O[C@H]1C(=O)CC[C@@]4(O)C(C2)N(CC2CC2)CCC314 (stereo partly drawn) [3-Methoxynaltrexone hydrochloride]"
measured_parameter = "normalised cell viability"
observed_result = 0.99

[[record]]
compound = "O=c1[nH]c2ccc(Cl)cc2c(N[C@@H]2CN3CCC2CC3)c1-c1nc2ccccc2[nH]1"
measured_parameter = "normalised cell viability"
observed_result = 0.0244


----------
test system: NCI-H1944; experiment: normalised cell viability (NPI; 0 = phenylarsine oxide control, 1 = DMSO control) (fraction of DMSO control); higher = more viable cells (less compound toxicity); settings: glucocorticoid arm: vehicle; compound 5 µM; 6 days
Where a name gives a salt, the structure may show the parent alone. Whole data set: some 1,900 compounds, median “normalised cell viability (NPI; 0 = phenylarsine oxide control, 1 = DMSO control)” near 1, cut for the lowest 2% near 0.039. Many of the other results were omitted from the sample, so the lowest values are more common in it than they were.
Reported normalised cell viability is given for each of the following compounds.
Measured Parameter: normalised cell viability

[[record]]
compound = "CN[C@@H]1C[C@@H](c2ccc(Cl)c(Cl)c2)c2ccccc21 [Indatraline hydrochloride]"
observed_result = 1.03

[[record]]
compound = "NC1CCc2cc(O)c(O)cc2C1 (stereo unspecified) [6,7-ADTN hydrobromide]"
observed_result = 0.989

[[record]]
compound = "C[C@@H]1O[C@@H](O[C@H]2C[C@@H](O)[C@]3(CO)[C@H]4[C@H](O)C[C@]5(C)[C@@H](C6=CC(=O)OC6)CC[C@]5(O)[C@@H]4CC[C@]3(O)C2)[C@H](O)[C@H](O)[C@H]1O [Ouabain]"
observed_result = 0.00424

[[record]]
compound = "NC(CCCCCP(=O)(O)O)C(=O)O (racemic) [(±)-2-Amino-7-phosphonoheptanoic acid]"
observed_result = 0.972

[[record]]
compound = "C[C@H](N)CN1CCc2ccc(Br)cc21 [VER-3323 hemifumarate salt]"
observed_result = 1

[[record]]
compound = "CCCN(CCC)[C@@H]1CCc2c(F)ccc(O)c2C1 [R(+)-UH-301 hydrochloride]"
observed_result = 1.02

[[record]]
compound = "OC[C@H]1O[C@@H](n2cnc3cc(Cl)c(Cl)cc32)[C@H](O)[C@@H]1O [5,6-Dichlorobenzimidazole riboside]"
observed_result = 0.991

[[record]]
compound = "O=C(N[C@H]1CN2CCC1CC2)c1ccc(Cl)cc1"
observed_result = 1.01

[[record]]
compound = "C=CCN1CCc2cccc3c2[C@H]1Cc1ccc(O)c(O)c1-3 [R(-)-N-Allylnorapomorphine hydrobromide]"
observed_result = 0.976

[[record]]
compound = "CC(N)C(O)c1ccc(O)c(O)c1 (single isomer, unassigned; (-)) [(-)-alpha-Methylnorepinephrine]"
observed_result = 0.998

[[record]]
compound = "C[C@H]1OC[C@@H](C[N+](C)(C)C)O1 [(+)-cis-Dioxolane]"
observed_result = 1.01

[[record]]
compound = "CCn1cnc2c(Nc3cccc(Cl)c3)nc(N[C@@H]3CCCC[C@@H]3N)nc21"
observed_result = 0.0192

[[record]]
compound = "C1CN1c1nc(N2CC2)nc(N2CC2)n1 [Triethylenemelamine]"
observed_result = 0.273

[[record]]
compound = "CCS(=O)(=O)Nc1cccc(C(=C2CCCCC2)c2cnc[nH]2)c1"
observed_result = 0.993

[[record]]
compound = "CC[C@H]1CN2CCc3cc(OC)c(OC)cc3[C@@H]2C[C@@H]1C[C@H]1NCCc2cc(OC)c(OC)cc21 [Emetine dihydrochloride hydrate]"
observed_result = 0.0108

[[record]]
compound = "C[C@@]12N[C@@H](Cc3ccccc31)c1ccccc12 [(-)-MK 801 Maleate]"
observed_result = 1.01


----------
test system: NCI-H1944; assay: normalised cell viability (NPI; 0 = phenylarsine oxide control, 1 = DMSO control) (fraction of DMSO control); NCI-H1944 is a non-small cell lung cancer line; higher = more viable cells (less compound toxicity); conditions: glucocorticoid arm: hydrocortisone 2.75 uM pre-treated 2 days and continued; compound 5 µM; 6 days;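 also: CTB read-out in 384-well plates, triplicate wells, NPI normalised per plate against 1 µM phenylarsine oxide (0) and 0.1% DMSO (1) controls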
Counter-ions that a name gives are not always drawn. Whole data set: some 1,900 compounds, median “normalised cell viability (NPI; 0 = phenylarsine oxide control, 1 = DMSO control)” near 1, cut for the lowest 2% near 0.039. Only a selection was taken, and the lowest values are over-represented in it overall.
Reported normalised cell viability values follow for various compounds
Measured Parameter: normalised cell viability

[[record]]
compound = "CCS(=O)(=O)Nc1cccc(C(=C2CCCCC2)c2cnc[nH]2)c1"
measured_parameter = "normalised cell viability"
observed_result = 1.04

[[record]]
compound = "C[C@@]12C(=O)OC(=O)[C@]1(C)[C@H]1CC[C@@H]2O1 [Cantharidin]"
measured_parameter = "normalised cell viability"
observed_result = 0.12

[[record]]
compound = "C=CCN(C1=NCCN1)c1c(Cl)cccc1Cl [Alinidine]"
measured_parameter = "normalised cell viability"
observed_result = 1

[[record]]
compound = "CCC(=O)CCCCC[C@@H]1NC(=O)[C@H]2CCCCN2C(=O)[C@H]([C@@H](C)CC)NC(=O)[C@H](Cc2cn(OC)c3ccccc23)NC1=O [Apicidin]"
measured_parameter = "normalised cell viability"
observed_result = 0.983

[[record]]
compound = "COc1ccc2c(c1)[C@@]13CCCC[C@H]1[C@@H](C2)NCC3 [3-Methoxymorphinan hydrochloride]"
measured_parameter = "normalised cell viability"
observed_result = 1.06

[[record]]
compound = "CCCN1CCC[C@@H]2Cc3n[nH]cc3C[C@H]21 (racemic) [(±)-Quinpirole dihydrochloride]"
measured_parameter = "normalised cell viability"
observed_result = 1.03

[[record]]
compound = "Oc1cc2c(cc1O)[C@H]1c3ccccc3CN[C@@H]1CC2 (racemic) [Dihydrexidine hydrochloride]"
measured_parameter = "normalised cell viability"
observed_result = 0.994

[[record]]
compound = "c1ccc(C2(c3ccccc3)CC2C2=NCCN2)cc1 (configuration not stated) [Cibenzoline succinate]"
measured_parameter = "normalised cell viability"
observed_result = 1.02

[[record]]
compound = "NC(CCCCCP(=O)(O)O)C(=O)O (racemic) [(±)-2-Amino-7-phosphonoheptanoic acid]"
measured_parameter = "normalised cell viability"
observed_result = 0.97

[[record]]
compound = "O=C1C=CC(=O)C=C1 [p-Benzoquinone]"
measured_parameter = "normalised cell viability"
observed_result = 0.999

[[record]]
compound = "C/C=C(/C)C(=O)O[C@H]1C(C)=C2[C@H]([C@@H]1OC(=O)CCCCCCC)[C@@](C)(OC(C)=O)C[C@H](OC(=O)CCC)[C@@]1(O)[C@H]2OC(=O)[C@@]1(C)O [Thapsigargin]"
measured_parameter = "normalised cell viability"
observed_result = 0.101

[[record]]
compound = "CCN(CCCl)CCOC(C)=O [Acetylethylcholine mustard hydrochloride]"
measured_parameter = "normalised cell viability"
observed_result = 1.11

[[record]]
compound = "c1ccc2c(c1)[I+]c1ccccc1-2 [Diphenyleneiodonium chloride]"
measured_parameter = "normalised cell viability"
observed_result = 0.0883

[[record]]
compound = "CCn1cnc2c(Nc3cccc(Cl)c3)nc(N[C@@H]3CCCC[C@@H]3N)nc21"
measured_parameter = "normalised cell viability"
observed_result = 0.182

[[record]]
compound = "CCCN1CCC[C@@H]2Cc3n[nH]cc3C[C@H]21 [(-)-Quinpirole hydrochloride]"
measured_parameter = "normalised cell viability"
observed_result = 1.01

[[record]]
compound = "C1CN1c1nc(N2CC2)nc(N2CC2)n1 [Triethylenemelamine]"
measured_parameter = "normalised cell viability"
observed_result = 0.989

[[record]]
compound = "CC12CCC3C(CCC4=C(O)C(=O)CCC43C)C1CCC2=O (configuration not stated) [4-Androsten-4-ol-3,17-dione]"
measured_parameter = "normalised cell viability"
observed_result = 1

